Every entry's value here was drawn from patent USRE46585.

TARGET_UNDER_TEST: T1, FcRn-p3 fusion protein (human, UniProt P55899 24-297; P61769 21-119)
T1 construct: baculovirus expressed; coated on ELISA wells; not shown: amino terminal part of bacteriophage p3 protein and CVDE protein
EXPERIMENT_SUMMARY: phage ELISA pH6 (est.)
REPORTED_ENDPOINT: Ratio/FWT (fold)
Field format: number, assumed fold, no unit text.

Some solved entries appear below for comparison.
- BINDER: "T5A_81 (other, EU numbering) CPPCPAPELLGGPSVFLFPPKPKDTLMISRTPEVTCVVEDVSHEDPEVKFNWYVDGVEVHNAKTKPREEQYNSTYRVVSVLTVLHQDWLNGKEYKCKVSNKALPAPIEKTISKAKGQPREPQVYTLPPSRDELTKNQVSLTCLVKGFYPSDIVVEWESNGQPENNYKTTPPVLDSDGSFFLYSKLTVDKSKWQQGNVFSCSVMHEALHNHYTQKSLSLSPGK"
  ENDPOINT_UNIT: "fold"
  Ratio/FWT: 14.9
- BINDER: "T5A_28 (other, EU numbering) CPPCPAPELLGGPSVLLFPPKPKDTLMISRTPEVTCVVEDVSHEDPEVKFNWYVDGVEVHNAKTKPREEQYNSTYRVVSVLTVLHQDWLNGKEYKCKVSNKALPAPIEKTISKAKGQPREPQVYTLPPSRDELTKNQVSLTCLVKGFYPSDIVVEWESNGQPENNYKTTPPVLDSDGSFFLYSKLTVDKSRWQQGNVFSCSVMHEALHYHYTQKSLSLSPGK"
  ENDPOINT_UNIT: "fold"
  Ratio/FWT: 7.9
- BINDER: "C5A_58 (other, EU numbering) CPPCPAPELLGGPSVFLFPPKPKDTLMISRTPEVTCVVEDVSHEDPEVKFNWYVDGVEVHNAKTKPREEQYNSTYRVVSVLTVLHQDWLNGKEYKCKVSNKALPAPIEKTISKAKGQPREPQVYTLPPSRDELTKNQVSLTCLVKGFYPSDIVVEWESNGQPENNYKTTPLVLDSDGSFFLYSKLTVDKSRWQQGNVFSCSVMHEALHSHYTQKSLSLSPGK"
  ENDPOINT_UNIT: "fold"
  Ratio/FWT: 9.1

Give Ratio/FWT for the following binder: T5A_29 (other, EU numbering) CPPCPAPELLGGPSVFLFPPKPKDTLMISRTPEVTCVVVDVSHEDPEVKFNWYVDGVEVHNAKTKPREEQYNSTYRVVSVLTVLHQDWLDGKEYKCKVSNKALPAPIEKTISKAKGQPREPQVYTLPPSRDELTKNQVSLTCLVKGFYPSDIAVEWVSNGQPENNYKTTPPVLDSDGSFFLYSKLTVDKSRWQQGNVFSCSVMHEALHYHYTQKSLSLSPGK
6

Give Ratio/FWT for the following binder: M3A_12 (other, EU numbering) CPPCPAPELLGGPSVFLFPPKPKDTLMISRTPEVTCVVVDVSHEDPEVKFNWYVDGVEVHNAKTKPREEQYNSTYRVVSVLTVLHQDWLDGKEYKCKVSNKALPAPIEKTISKAKGQPREPQVYTLPPSRDELTKNRVSLTCLVKGFYPSDIAVEWESNGQPENNYKTTPPVLDSDGSFFLYSKLTVDKSRWQQGDVFSCSVMHEALHSHYTQKSLSLSPGK
3.4
